TEST_METHOD_NOTES: qHTS of pediatric cancer cell lines to identify multiple opportunities for drug repurposing: Primary screen for Rh30 cells (AID 1347107); further: nearly all actives have a fitted effect of over 75% in size
RUN_PARAMETERS: Rh30 rhabdomyosarcoma viability, CellTiter-Glo luminescence, 48 h; series mostly up to 46 µM
Results filed as inconclusive are left out. Activity calls are given as the source filed them. The call rests on the fitted dose curve; in most records, active means well fitted cell-killing curve with a large enough effect; inconclusive means small, poorly fitted or top-dose-only effect; inactive means no such curve, though single readings can be large or run the other way.
Choose one outcome from this list and give only that: true = active, false = inactive

# input Would you mind telling me which call this test gave `O=C(C=CC=Cc1ccc2c(c1)OCO2)N1CCCCC1` ?
# output false

Others:
# input Would you mind telling me which call this test gave `CCCCCCCCc1ccc(CCC(N)(CO)CO)cc1` ?
# output true

# input Would you mind telling me which call this test gave C#CCC(Cc1cnc2nc(N)nc(N)c2n1)c1ccc(C(=O)N[C@@H](CCC(=O)O)C(=O)O)cc1 (stereo not given in full) ?
# output false

# input Would you mind telling me which call this test gave `CC(C)(O)[C@H]1CC[C@@](C)([C@H]2[C@@H](O)C[C@@]3(C)[C@@H]4C[C@H](O[C@@H]5O[C@H](CO)[C@@H](O)[C@H](O)[C@@H]5O)[C@H]5C(C)(C)[C@@H](O[C@@H]6OC[C@@H](O)[C@H](O)[C@@H]6O)CC[C@@]56C[C@@]46CC[C@]23C)O1` ?
# output false

# input Would you mind telling me which call this test gave `O=c1[nH]c(=O)n([C@H]2C[C@@H](O)[C@@H](CO)O2)cc1C=CBr` ?
# output false
